- Tested on: Streptococcus agalactiae
- MEASUREMENT NOTES: Concentration required to inhibit Streptococcus agalactiae CMX508 stain by standard agar dilution method.
- Type: functional
PROPERTY MEASURED: MIC (µg/mL)
Answer in µg/mL, number only, no unit symbol.

Worked cases, MIC given:
| COMPOUND STRUCTURE | TARGET | MIC (µg/mL) |
| --- | --- | --- |
| CC[C@H]1OC(=O)[C@H](C)[C@@H](O[C@H]2C[C@@](C)(OC)[C@@H](O)[C@H](C)O2)[C@H](C)[C@@H](O[C@@H]2O[C@H](C)C[C@H](N(C)C)[C@H]2O)[C@@](C)(O)C[C@@H](C)[C@@H](N(C)C)[C@H](C)[C@@H](O)[C@H]1CO | Streptococcus agalactiae | 0.78 |
| CC[C@H]1OC(=O)[C@H](C)[C@@H](O[C@H]2C[C@@](C)(OC)[C@@H](O)[C@H](C)O2)[C@H](C)[C@@H](O[C@@H]2O[C@H](C)C[C@H](N(C)C)[C@H]2O)[C@@](C)(O)C[C@@H](C)[C@@H](N(C)C)[C@H](C)[C@@H](O)[C@@]1(O)CO | Streptococcus agalactiae | 3.1 |
| CC[C@H]1OC(=O)[C@H](C)[C@@H](O[C@H]2C[C@@](C)(OC)[C@@H](O)[C@H](C)O2)[C@H](C)[C@@H](O[C@H]2O[C@H](C)C[C@H](N(C)C)[C@H]2O)[C@@](C)(O)C[C@@H](C)[C@@H](N(C)C)[C@H](C)[C@@H](O)[C@@]12CO2 | Streptococcus agalactiae | 0.05 |

Now for the compound whose MIC we want.
Exam item: Determine reported MIC for CC[C@H]1OC(=O)[C@H](C)[C@@H](O[C@H]2C[C@@](C)(OC)[C@@H](O)[C@H](C)O2)[C@H](C)[C@@H](O[C@@H]2O[C@H](C)C[C@H](N(C)C)[C@H]2O)[C@@](C)(O)C[C@@H](C)[C@@H](N(C)C)[C@H](C)[C@@H](O)[C@]1(C)O ; test system: Streptococcus agalactiae.
Marked response: 0.1
